Reported % Mean Degradation of BRD4 values for the following compounds.
System Under Test: BRD4 long isoform (Homo sapiens)
Construct: endogenous in cells; host or cells: MDA-MB-468
Assay Method Text: BRD4 degradation assay (Western blot, MDA-MB-468 cells), long isoform
Assay type: cell-based
Condition Set: 48 h, 0.1 μM, MDA-MB-468, n = 2
Description: BRD4 Degradation Assay Protocol Summary MDA-MB-468 cells were cultured routinely in DMEM supplemented with 10% heat inactivated FBS and 1% Penicillin-Streptomycin (Thermofisher Scientific) at 37° C. 5% CO2. […] Lysates were clarified by centrifugation at 13,000 RPM for 10 minutes and the protein concentration of the resulting supernatants determined by BCA assay (ThermoFisher Scientific) as per manufacturer's instructions. […]
Express your answer in %, writing the number without its unit.

For Cc1sc2c(c1C)C(c1ccc(Cl)cc1)=N[C@@H](CC(=O)NCCOCCNC(=O)[C@@]1(C)CCCC[C@H]1C(=O)N1CCc3c(Cl)ccc(OCc4nnn(C)c4C)c3[C@H]1CN1CC3(CC3)CC1=O)c1nnc(C)n1-2 [Comparative Example 2, reference compound] the compound record lists % Mean Degradation of BRD4 as −26

====

System Under Test: BRD4 short isoform (Homo sapiens, UniProt O60885)
Construct: endogenous in cells; host or cells: MDA-MB-468
Assay Method Text: BRD4 degradation assay (Western blot, MDA-MB-468 cells), short isoform
Type: cell-based
Condition Set: 48 h, 1 μM, MDA-MB-468, n = 2
Procedure: BRD4 Degradation Assay Protocol Summary MDA-MB-468 cells were cultured routinely in DMEM supplemented with 10% heat inactivated FBS and 1% Penicillin-Streptomycin (Thermofisher Scientific) at 37° C. 5% CO2. […] Lysates were clarified by centrifugation at 13,000 RPM for 10 minutes and the protein concentration of the resulting supernatants determined by BCA assay (ThermoFisher Scientific) as per manufacturer's instructions. […]
Property: % Mean Degradation of BRD4 (%)
Please respond with the number in % and leave the unit unwritten.

Please review the following examples before continuing.
molecule=CNC(=O)[C@@]1(C)CCCC[C@H]1C(=O)N1CCc2c(Cl)ccc(OCc3nnn(CCNC(=O)CNC(=O)C[C@@H]4N=C(c5ccc(Cl)cc5)c5c(sc(C)c5C)-n5c(C)nnc54)c3C)c2[C@H]1CN1CC2(CC2)CC1=O value_measured=92
molecule="Cc1sc2c(c1C)C(c1ccc(Cl)cc1)=N[C@@H](CC(=O)NCC(=O)NCCNC(=O)[C@@]1(C)CCCC[C@H]1C(=O)N1CCc3c(Cl)ccc(OCc4nnn(C)c4C)c3[C@H]1CN1CC3(CC3)CC1=O)c1nnc(C)n1-2 [Comparative Example 1, reference compound]" value_measured=24
molecule=Cc1sc2c(c1C)C(c1ccc(Cl)cc1)=N[C@@H](CC(=O)NCC(=O)NCCOCC(=O)N1CC[C@H](Oc3ccc(Cl)c4c3[C@@H](CN3CC5(CC5)CC3=O)N(C(=O)[C@@H]3CCCC[C@]3(C)C(=O)O)CC4)C1)c1nnc(C)n1-2 value_measured=44
molecule="Cc1sc2c(c1C)C(c1ccc(Cl)cc1)=N[C@@H](CC(=O)NCCOCCNC(=O)[C@@]1(C)CCCC[C@H]1C(=O)N1CCc3c(Cl)ccc(OCc4nnn(C)c4C)c3[C@H]1CN1CC3(CC3)CC1=O)c1nnc(C)n1-2 [Comparative Example 2, reference compound]" value_measured=13

For reference, reported % Mean Degradation of BRD4 for Cc1sc2c(c1C)C(c1ccc(Cl)cc1)=N[C@@H](CC(=O)NCC(=O)NCCn1nnc(COc3ccc(Cl)c4c3[C@@H](CN3CC5(CC5)CC3=O)N(C(=O)[C@@H]3CCCC[C@]3(C)C(=O)O)CC4)c1C)c1nnc(C)n1-2 stands at 100

====

Measured % Mean Degradation of BRD4 by item
System Under Test: BRD4 short isoform (Homo sapiens)
Construct: endogenous in cells; host or cells: MDA-MB-468
Assay Method Text: BRD4 degradation assay (Western blot, MDA-MB-468 cells), short isoform
Format: cell-based
Condition Set: 48 h, 0.1 μM, MDA-MB-468, n = 2
Kindly answer with a numeric value in %, unit omitted.

get_value(item= Cc1sc2c(c1C)C(c1ccc(Cl)cc1)=N[C@@H](CC(=O)NCC(=O)NCCn1nnc(COc3ccc(Cl)c4c3[C@@H](CN3CC5(CC5)CC3=O)N(C(=O)[C@@H]3CCCC[C@]3(C)C(=O)O)CC4)c1C)c1nnc(C)n1-2 , readout=% Mean Degradation of BRD4) returns 93

Per the record, Cc1sc2c(c1C)C(c1ccc(Cl)cc1)=N[C@@H](CC(=O)NCC(=O)NCCOCC(=O)N1CC[C@H](Oc3ccc(Cl)c4c3[C@@H](CN3CC5(CC5)CC3=O)N(C(=O)[C@@H]3CCCC[C@]3(C)C(=O)O)CC4)C1)c1nnc(C)n1-2 has % Mean Degradation of BRD4 of 1

Consider Cc1sc2c(c1C)C(c1ccc(Cl)cc1)=N[C@@H](CC(=O)NCCOCCC(=O)NCCOCc1c(COc3ccc(Cl)c4c3[C@@H](CN3CC5(CC5)CC3=O)N(C(=O)[C@@H]3CCCC[C@]3(C)C(=O)O)CC4)nnn1C)c1nnc(C)n1-2 . Its measured % Mean Degradation of BRD4 is 40

====

Overview of recorded % Mean Degradation of BRD4 for various compounds
System Under Test: BRD4 long isoform (Homo sapiens, UniProt O60885)
Construct: endogenous in cells; host or cells: MDA-MB-468
Assay Method Text: BRD4 degradation assay (Western blot, MDA-MB-468 cells), long isoform
Type: cell-based
Condition Set: 24 h, 0.1 μM, MDA-MB-468, n = 2
Enter the number, and then the unit.

compound=CNC(=O)[C@@]1(C)CCCC[C@H]1C(=O)N1CCc2c(Cl)ccc(OCc3nnn(CCNC(=O)CNC(=O)C[C@@H]4N=C(c5ccc(Cl)cc5)c5c(sc(C)c5C)-n5c(C)nnc54)c3C)c2[C@H]1CN1CC2(CC2)CC1=O property="% Mean Degradation of BRD4" value_measured=77%
compound=Cc1sc2c(c1C)C(c1ccc(Cl)cc1)=N[C@@H](CC(=O)NCCOCCC(=O)NCCOCc1c(COc3ccc(Cl)c4c3[C@@H](CN3CC5(CC5)CC3=O)N(C(=O)[C@@H]3CCCC[C@]3(C)C(=O)O)CC4)nnn1C)c1nnc(C)n1-2 property="% Mean Degradation of BRD4" value_measured=1%
compound=Cc1sc2c(c1C)C(c1ccc(Cl)cc1)=N[C@@H](CC(=O)NCC(=O)NCCn1nnc(COc3ccc(Cl)c4c3[C@@H](CN3CC5(CC5)CC3=O)N(C(=O)[C@@H]3CCCC[C@]3(C)C(=O)O)CC4)c1C)c1nnc(C)n1-2 property="% Mean Degradation of BRD4" value_measured=99%

Okay, now this compound:
Per the records, this compound ( Cc1sc2c(c1C)C(c1ccc(Cl)cc1)=N[C@@H](CC(=O)NCCOCCOCCNC(=O)[C@@]1(C)CCCC[C@H]1C(=O)N1CCc3c(Cl)ccc(OCc4nnn(C)c4C)c3[C@H]1CN1CC3(CC3)CC1=O)c1nnc(C)n1-2 [Comparative Example 3, reference compound] ) has % Mean Degradation of BRD4 equal to 34%

====

System Under Test: BRD4 long isoform (Homo sapiens)
Construct: endogenous in cells; host or cells: MDA-MB-468
Assay Method Text: BRD4 degradation assay (Western blot, MDA-MB-468 cells), long isoform
Type: cell-based
Condition Set: 48 h, 5 μM, MDA-MB-468, n = 2
Property: % Mean Degradation of BRD4 (%)
Write down the numeric answer in % and omit the unit.

Recorded % Mean Degradation of BRD4, per entry:
compound="Cc1sc2c(c1C)C(c1ccc(Cl)cc1)=N[C@@H](CC(=O)NCCOCCC(=O)NCCOCc1c(COc3ccc(Cl)c4c3[C@@H](CN3CC5(CC5)CC3=O)N(C(=O)[C@@H]3CCCC[C@]3(C)C(=O)O)CC4)nnn1C)c1nnc(C)n1-2 [Example 5]" value_measured=82
compound="Cc1sc2c(c1C)C(c1ccc(Cl)cc1)=N[C@@H](CC(=O)NCCC(=O)NCCOCc1c(COc3ccc(Cl)c4c3[C@@H](CN3CC5(CC5)CC3=O)N(C(=O)[C@@H]3CCCC[C@]3(C)C(=O)O)CC4)nnn1C)c1nnc(C)n1-2 [Example 4]" value_measured=71
compound="Cc1sc2c(c1C)C(c1ccc(Cl)cc1)=N[C@@H](CC(=O)NCCOCCNC(=O)[C@@]1(C)CCCC[C@H]1C(=O)N1CCc3c(Cl)ccc(OCc4nnn(C)c4C)c3[C@H]1CN1CC3(CC3)CC1=O)c1nnc(C)n1-2 [Comparative Example 2, reference compound]" value_measured=−124
compound="Cc1sc2c(c1C)C(c1ccc(Cl)cc1)=N[C@@H](CC(=O)NCC(=O)NCCOCC(=O)N1CC[C@H](Oc3ccc(Cl)c4c3[C@@H](CN3CC5(CC5)CC3=O)N(C(=O)[C@@H]3CCCC[C@]3(C)C(=O)O)CC4)C1)c1nnc(C)n1-2 [Example 6]" value_measured=82
compound="Cc1sc2c(c1C)C(c1ccc(Cl)cc1)=N[C@@H](CC(=O)NCCOCCOCCNC(=O)[C@@]1(C)CCCC[C@H]1C(=O)N1CCc3c(Cl)ccc(OCc4nnn(C)c4C)c3[C@H]1CN1CC3(CC3)CC1=O)c1nnc(C)n1-2 [Comparative Example 3, reference compound]" value_measured=20

Cc1sc2c(c1C)C(c1ccc(Cl)cc1)=N[C@@H](CC(=O)NCC(=O)NCCOCc1c(COc3ccc(Cl)c4c3[C@@H](CN3CC5(CC5)CC3=O)N(C(=O)[C@@H]3CCCC[C@]3(C)C(=O)O)CC4)nnn1C)c1nnc(C)n1-2 [Example 3] yielded % Mean Degradation of BRD4 of 60

Sure, the documented % Mean Degradation of BRD4 for Cc1sc2c(c1C)C(c1ccc(Cl)cc1)=N[C@@H](CC(=O)NCC(=O)NCCNC(=O)[C@@]1(C)CCCC[C@H]1C(=O)N1CCc3c(Cl)ccc(OCc4nnn(C)c4C)c3[C@H]1CN1CC3(CC3)CC1=O)c1nnc(C)n1-2 [Comparative Example 1, reference compound] is −47

Looking up CNC(=O)[C@@]1(C)CCCC[C@H]1C(=O)N1CCc2c(Cl)ccc(OCc3nnn(CCNC(=O)CNC(=O)C[C@@H]4N=C(c5ccc(Cl)cc5)c5c(sc(C)c5C)-n5c(C)nnc54)c3C)c2[C@H]1CN1CC2(CC2)CC1=O [Example 2] , I see its % Mean Degradation of BRD4 listed as 94
